# tested.system: T1, human SLITRK6 on cells (human, UniProt Q9H5Y7 27-841)
# T1 construct: whole, on cells
# measurement.protocol: flow cytometry on SW780 cells, PE-conjugated anti-human Fc

| binder | EC50 (read off the curve) |
| --- | --- |
| AGS15E (antibody, V domains shown, drug conjugate; drug-linker and positions not given, also called ADC of Sirtratumab) VH: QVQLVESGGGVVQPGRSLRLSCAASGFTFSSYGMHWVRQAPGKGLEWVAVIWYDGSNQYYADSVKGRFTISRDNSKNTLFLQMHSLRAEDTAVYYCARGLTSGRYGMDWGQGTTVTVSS VL: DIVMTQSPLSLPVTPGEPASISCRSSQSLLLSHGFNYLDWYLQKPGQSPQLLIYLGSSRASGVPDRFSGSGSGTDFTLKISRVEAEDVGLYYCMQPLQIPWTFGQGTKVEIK | ~0.2 nM |
| hu1H2-03 with a LALA mutation (hu1H2-03-LALA) (antibody, V domains shown) VH: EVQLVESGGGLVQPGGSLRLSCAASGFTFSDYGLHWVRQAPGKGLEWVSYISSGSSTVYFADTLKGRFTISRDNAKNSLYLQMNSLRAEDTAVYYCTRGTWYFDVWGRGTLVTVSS VL: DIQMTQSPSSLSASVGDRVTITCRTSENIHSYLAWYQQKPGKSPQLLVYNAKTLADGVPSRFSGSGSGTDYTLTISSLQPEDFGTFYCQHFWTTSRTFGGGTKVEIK | ~0.3 nM |
| hu1H2-03-LD343 (8) (antibody, V domains shown, drug-linker LD343 on cysteines freed by TCEP reduction, DAR 8.0; positions not given) VH: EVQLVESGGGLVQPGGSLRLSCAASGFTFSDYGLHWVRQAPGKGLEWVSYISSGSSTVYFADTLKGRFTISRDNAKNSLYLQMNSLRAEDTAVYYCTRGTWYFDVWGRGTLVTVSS VL: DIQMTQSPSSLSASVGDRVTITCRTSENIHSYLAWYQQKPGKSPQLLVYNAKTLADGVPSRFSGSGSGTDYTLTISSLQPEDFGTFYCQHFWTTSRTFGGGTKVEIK | ~0.3 nM |
| Sirtratumab (antibody, V domains shown, Prior-art benchmark antibody; also called Sirtratuzumab) VH: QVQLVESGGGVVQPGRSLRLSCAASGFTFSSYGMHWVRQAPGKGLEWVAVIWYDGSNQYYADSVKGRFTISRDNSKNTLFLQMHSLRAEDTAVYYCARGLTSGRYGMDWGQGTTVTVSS VL: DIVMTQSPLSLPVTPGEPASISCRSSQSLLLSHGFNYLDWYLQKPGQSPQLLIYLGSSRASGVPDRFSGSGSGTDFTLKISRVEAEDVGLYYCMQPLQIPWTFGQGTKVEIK | ~0.3 nM |
